# protocol: protease stability score; higher = more stable; yeast display proteolysis, trypsin and chymotrypsin;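 note: log10 excess protease needed over predicted unfolded state with 0 meaning unfolded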
measured_attribute: protease stability score
Output spec: single numeric token, no unit.

DEEEELRRAVKAIKQYMTGNEQEVSKMADPNVKIQVGEKRIHGREQLRQEVKRLHDTVDHIEVLSITHTGNSAQVDARVEVDGRVQRFVLRVVMHNGRITSIVVEVTDEDRFKNMVK; 1.2
DEDLDKQAQEFIHAMQEGDPQRLSEQMDPNARFHVGEKNIHGKEEVMRDFQRTVDQAEIEFKEYSVRAEPGRVRIKLHYVDNNDGRPHSKVQDMVIVFHNGKLVVIDVNDSQ; 0.236
DDDEIRRLAKRVVKALHDGDPDEMMRLADENAKIDVGDHRIRGREQLRDFVKQLTEDVDHIRIHDYRVTPNHARVVVVVDHNGQKSTFVVEAHMDNGTIKSMRFHER; 0.462
DEEEQHKVAKKLNEAFQQGDPDRLKQLVDKDARAEVGDTTYHGSQDIREAMQHIKDRVDKIEVKSFSVRNGKVTLSINMEVNGRKVILTVEARVDNGHVEYMRIKYTNEEDREVMDQ; 0.95

# ---- query sequence ----
Data request: For the sequence `DDDAVRKLRELIKAVKDGDPSRAKELMDPNAEIVVGDHYIRGMDNFDKEIDRQKKEARVEYRLKRVRHDENHIKVDAEVIFNVNGRPVTFKLKMRVKLHNGKMIEVEQQVDESSIERVKS` , what protease stability score is on record?
Data returned: 1.01
